test system: T lymphocytes; assay: Inhibition of proliferation of PHA-stimulated T lymphocytes (tritium thymidine incorporation); format: cell-based; conditions: Homo sapiens, T-lymphocyte, 1 μg/ml Phytohemagglutinine, 48 hours, test compounds 0.1-250 μM, read-out: T cells IC50
Below, each entry is listed with its recorded pIC50.
Please note pIC50 is a logarithmic value: minus log10 of concentration in mol/L. Answer with that number alone.

Would you please look over these solved cases?
NC(CNC(=O)c1cccc(NC(=O)C(O)C(N)Cc2ccc(-c3ccsc3)cc2)c1)Cc1cc(F)ccc1F (stereo not shown) [drawing 284] ... 5.41
CC(C)(CNC(=O)CC(N)Cc1cc(F)ccc1F)CNC(=O)C(O)C(N)Cc1ccc(O)cc1 (stereo not shown) [drawing 279] ... 4.42
NC(CC(=O)NCCNC(=O)C(O)C(N)Cc1ccccc1)Cc1ccc2ccccc2c1 (stereo not shown) [drawing 219] ... 4.47
NC(CC(=O)N1CCCN(C(=O)C(O)C(N)Cc2ccccc2)CC1)Cc1cc(F)ccc1F (stereo not shown) [drawing 271] ... 4.08

Q: Look up T lymphocytes data: pIC50 of CC(C)(CNC(=O)C(O)C(N)Cc1ccccc1)CNC(=O)C(CC(=O)O)C(N)Cc1cc(F)ccc1F (stereo not shown) [drawing 262] , then report it.
Result: 4.05

Q: Look up T lymphocytes data: pIC50 of NC(CC(=O)NCC1(CNC(=O)C(O)C(N)Cc2ccccc2)CCC1)Cc1cc(F)ccc1F (stereo not shown) [drawing 263] , then report it.
Result: 4.72

====

target: purified, recombinant human DPIV (Homo sapiens); assay: Measurement of DPIV activity (fluorogenic substrate (Ala-Pro)2-R110)
Sequence (P27487 whole entry): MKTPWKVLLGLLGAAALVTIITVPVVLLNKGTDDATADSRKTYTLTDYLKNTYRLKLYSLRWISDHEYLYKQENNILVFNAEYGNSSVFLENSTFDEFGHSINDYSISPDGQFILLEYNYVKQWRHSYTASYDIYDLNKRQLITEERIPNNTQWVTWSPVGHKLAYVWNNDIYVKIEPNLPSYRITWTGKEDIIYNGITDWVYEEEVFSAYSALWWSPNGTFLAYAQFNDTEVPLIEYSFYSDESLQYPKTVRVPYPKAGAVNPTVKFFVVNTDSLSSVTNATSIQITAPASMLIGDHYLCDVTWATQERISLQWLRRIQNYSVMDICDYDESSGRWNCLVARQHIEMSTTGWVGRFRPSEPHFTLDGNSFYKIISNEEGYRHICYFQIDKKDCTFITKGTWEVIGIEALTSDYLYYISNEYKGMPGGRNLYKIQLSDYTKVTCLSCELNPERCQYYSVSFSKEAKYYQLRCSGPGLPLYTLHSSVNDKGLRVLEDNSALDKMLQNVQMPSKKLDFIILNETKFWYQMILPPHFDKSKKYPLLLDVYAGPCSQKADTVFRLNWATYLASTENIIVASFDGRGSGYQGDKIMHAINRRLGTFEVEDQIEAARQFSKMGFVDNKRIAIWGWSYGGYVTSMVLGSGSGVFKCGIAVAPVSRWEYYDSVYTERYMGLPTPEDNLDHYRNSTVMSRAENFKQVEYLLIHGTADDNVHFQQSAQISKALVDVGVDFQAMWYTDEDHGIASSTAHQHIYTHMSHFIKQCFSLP
pIC50: −log10 of the molar value.
reported_endpoint: pIC50

Would you please look over these solved cases?
CC(C)(CNC(=O)CC(CN)Cc1ccccc1)CNC(=O)C(O)C(N)Cc1ccccc1 (stereo not drawn) [drawing 34] ... < 4.30
CCCCCCCCCCCCCCCC(=O)NC(CC(=O)NCC(C)(C)CNC(=O)C(O)C(Cc1ccccc1)NC(=O)CCCCCCCCCCCCCCC)Cc1cc(F)ccc1F (stereo not drawn) [drawing 62] ... < 4.30

For the next question, use this compound.
Q: Answer with reported pIC50 of CCCCCCCCCCCCCC(=O)NC(CC(=O)NCC(C)(C)CNC(=O)C(O)C(Cc1ccccc1)NC(=O)CCCCCCCCCCCCC)Cc1cc(F)ccc1F (stereo not drawn) [drawing 58]
Result: 5.26

====

molecular target: purified, recombinant human DPIV (Homo sapiens); assay: Measurement of DPIV activity (fluorogenic substrate (Ala-Pro)2-R110)
Threshold-based label: IC50 under 100 nM gives 1, IC50 not under 100 nM gives -1.

Please review the following examples before continuing.
NC(CNC(=O)c1cccc(NC(=O)C(O)C(N)Cc2ccccc2)c1)Cc1cc(F)ccc1F (centres unmarked) [drawing 71] ... -1
NC(CNC(=O)c1cccc(NC(=O)C(O)C(N)Cc2ccc(-c3ccsc3)cc2)c1)Cc1cc(F)ccc1F (centres unmarked) [drawing 78] ... -1
CCCCCCCC(=O)OC(C(=O)NCC(C)(C)CNC(=O)CC(N)Cc1cc(F)ccc1F)C(N)Cc1ccccc1 (centres unmarked) [drawing 41] ... -1
CCCCCCCC(=O)OC(C(=O)NCCCCNC(=O)CC(N)Cc1cc(F)ccc1F)C(N)Cc1ccccc1 (centres unmarked) [drawing 50] ... -1
NC(CC(=O)NCCCCCCNC(=O)C(O)C(N)Cc1ccccc1)Cc1ccccc1 (centres unmarked) [drawing 28] ... -1
CCCCCC(=O)OC(C(=O)NCC(C)(C)CNC(=O)CC(N)Cc1cc(F)ccc1F)C(N)Cc1ccccc1 (centres unmarked) [drawing 55] ... 1
CC(C)(CNC(=O)CC(N)Cc1cc(F)ccc1F)CNC(=O)C(O)C(N)Cc1ccc(-c2cccnc2)cc1 (centres unmarked) [drawing 76] ... 1
NC(CC(=O)N1CCCN(C(=O)C(O)C(N)Cc2ccccc2)CC1)Cc1cc(F)ccc1F (centres unmarked) [drawing 65] ... 1
C[C@@H]1CN(C(=O)CC(O)C(N)Cc2ccccc2)C[C@H](C)N1C(=O)CC(N)Cc1ccccc1 (some centres unmarked) [drawing 19] ... -1
CCCC(=O)OC(C(=O)NCC(C)(C)CNC(=O)CC(N)Cc1cc(F)ccc1F)C(N)Cc1ccccc1 (centres unmarked) [drawing 54] ... 1

Q: Below 100 nM on IC50? Entry CC(C)(CNC(=O)CC(N)Cc1cc(F)ccc1F)CNC(=O)C1OC(=O)NC1Cc1ccc(-c2ccccc2)cc1 (centres unmarked) [drawing 69]
Result: -1

Q: Below 100 nM on IC50? Entry CCCCCCCC(=O)NC(CC(=O)NCC(C)(C)CNC(=O)C(O)C(Cc1ccccc1)NC(=O)CCCCCCC)Cc1cc(F)ccc1F (centres unmarked) [drawing 33]
Result: -1
